# TARGET UNDER TEST: full length TCPTP (Homo sapiens)
# Construct: except full length TCPTP was used as the enzyme
# TEST SUMMARY: Inhibition of TCPTP (pNPP hydrolysis, same manner as PTP1B assay)
# Assay type: biochemical
# EXPERIMENTAL CONTEXT: 200 μM inhibitor; pNPP substrate; read-out: TCPTP % Inhib. at (200 μM)
We use 20% as the dividing line for inhibition at 200 µM: on or above the line is met, below is not met.

Evaluate COC(=O)CC[C@@H](C)[C@H]1CCC2C3C(CC[C@@]21C)[C@@]1(C)CCC(NCCNC(C)C)C[C@@H]1C[C@H]3NC(=O)OC (stereo partly drawn) : inhibition at 200 µM at minimum 20%? not met

Repeat for the following compound: COC(=O)CC[C@@H](C)[C@H]1CCC2C3C(CC[C@@]21C)[C@@]1(C)CC[C@@H](NCCCCNCc2cccnc2)C[C@@H]1C[C@H]3O (stereo partly drawn) met

Repeat for the following compound: COC(=O)CC[C@@H](C)[C@H]1CCC2C3C(CC[C@@]21C)[C@@]1(C)CCC(NCCNC(C)C)C[C@@H]1C[C@H]3NS(C)(=O)=O (stereo partly drawn) not met

Repeat for the following compound: COC(=O)CC[C@@H](C)[C@H]1CCC2C3C[C@H](O)[C@@H]4C[C@@H](NCCNC(C)C)CC[C@]4(C)C3CC[C@@]21C (stereo partly drawn) not met

Repeat for the following compound: COC(=O)CC[C@@H](C)[C@H]1CCC2C3C(CC[C@@]21C)[C@@]1(C)CC[C@H](NCCCCNCc2cccnc2)C[C@@H]1C[C@H]3O (stereo partly drawn) not met

Repeat for the following compound: COC(=O)CC[C@@H](C)[C@H]1CCC2C3C[C@H](O)[C@@H]4C[C@H](NCCNC(C)C)CC[C@]4(C)C3CC[C@@]21C (stereo partly drawn) not met

Repeat for the following compound: COC(=O)CC[C@@H](C)[C@H]1CCC2C3CC[C@@H]4C[C@H](NCCNC(C)C)CC[C@]4(C)C3CC[C@@]21C (stereo partly drawn) met

Repeat for the following compound: CC(C)CCC[C@@H](C)[C@H]1CCC2C3C[C@@H](O)[C@H]4C[C@H](NCCCNCCCCNCCCN)CC[C@]4(C)C3CC[C@@]21C (stereo partly drawn) not met

Repeat for the following compound: COC(=O)CC[C@@H](C)[C@H]1CCC2C3C(CC[C@@]21C)[C@@]1(C)CCC(NCCNC(C)C)C[C@@H]1C[C@H]3O (stereo partly drawn) met

Repeat for the following compound: COC(=O)CC[C@@H](C)[C@H]1CCC2C3CC[C@@H]4C[C@H](NCc5ccccn5)CC[C@]4(C)C3C[C@H](O)[C@@]21C (stereo partly drawn) not met

Repeat for the following compound: COC(=O)CC[C@@H](C)[C@H]1CCC2C3C[C@@H](O)[C@H]4C[C@H](NCCNC(C)C)CC[C@]4(C)C3CC[C@@]21C (stereo partly drawn) met

Repeat for the following compound: COC(=O)CC[C@@H](C)[C@H]1CCC2C3C(CC[C@@]21C)[C@@]1(C)CCC(NCCNC(C)C)C[C@@H]1C[C@H]3S(C)(=O)=O (stereo partly drawn) not met

---

Give inhibition at 5 µM for every item shown.
# TARGET UNDER TEST: full length tyrosine phosphatase PTP1B (Homo sapiens, UniProt P18031)
# Construct: purchased
# Sequence (P18031 1-435): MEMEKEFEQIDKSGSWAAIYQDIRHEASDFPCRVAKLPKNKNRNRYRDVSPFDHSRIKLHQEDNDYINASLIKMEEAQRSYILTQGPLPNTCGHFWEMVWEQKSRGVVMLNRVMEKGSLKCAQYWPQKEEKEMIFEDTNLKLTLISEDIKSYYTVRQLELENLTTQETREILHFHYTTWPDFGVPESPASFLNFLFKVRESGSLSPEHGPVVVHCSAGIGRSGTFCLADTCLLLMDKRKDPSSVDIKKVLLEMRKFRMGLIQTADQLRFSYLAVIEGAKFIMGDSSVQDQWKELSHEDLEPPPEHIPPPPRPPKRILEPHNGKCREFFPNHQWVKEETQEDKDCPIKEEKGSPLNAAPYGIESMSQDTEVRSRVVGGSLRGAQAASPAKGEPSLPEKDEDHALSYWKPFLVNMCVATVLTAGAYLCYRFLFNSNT
# TEST SUMMARY: Inhibition of PTP1B (pNPP hydrolysis, absorbance at 405 nm)
# Format: biochemical
# EXPERIMENTAL CONTEXT: 5 μM aminosteroid analogue; pNPP substrate; read-out: PTP1B % Inhib. at (5 μM)
Please answer in the form of a number followed by its unit of measurement.

Return reported inhibition at 5 µM; argument: CC(C)CCC[C@@H](C)[C@H]1CCC2C3C[C@@H](O)[C@H]4C[C@@H](NCCN)CC[C@]4(C)C3CC[C@@]21C (some centres unmarked) 0%

Repeat for the following compound: COC(=O)CC[C@@H](C)[C@H]1CCC2C3C(CC[C@@]21C)[C@@]1(C)CC[C@H](NCCN2CCCCC2)C[C@@H]1C[C@H]3O (some centres unmarked) 102%

Repeat for the following compound: CCN(C(=O)NCCCN(C)C)C(=O)C(C)[C@H]1CCC2C3CC[C@H]4CC(NCCNC)CC[C@]4(C)C3CC[C@@]21C (some centres unmarked) 0%

Repeat for the following compound: COC(=O)CC[C@@H](C)[C@H]1CCC2C3C(CC[C@@]21C)[C@@]1(C)CCC(NCCNC(C)C)C[C@@H]1C[C@H]3NS(C)(=O)=O (some centres unmarked) 102%

Repeat for the following compound: CC(C)CCC[C@@H](C)[C@H]1CCC2C3C[C@@H](O)[C@H]4C[C@H](NCCCNCCCCNCCCN)CC[C@]4(C)C3CC[C@@]21C (some centres unmarked) 51%

---

# TARGET UNDER TEST: full length TCPTP (Homo sapiens)
# Construct: except full length TCPTP was used as the enzyme
# Sequence (P17706 1-415): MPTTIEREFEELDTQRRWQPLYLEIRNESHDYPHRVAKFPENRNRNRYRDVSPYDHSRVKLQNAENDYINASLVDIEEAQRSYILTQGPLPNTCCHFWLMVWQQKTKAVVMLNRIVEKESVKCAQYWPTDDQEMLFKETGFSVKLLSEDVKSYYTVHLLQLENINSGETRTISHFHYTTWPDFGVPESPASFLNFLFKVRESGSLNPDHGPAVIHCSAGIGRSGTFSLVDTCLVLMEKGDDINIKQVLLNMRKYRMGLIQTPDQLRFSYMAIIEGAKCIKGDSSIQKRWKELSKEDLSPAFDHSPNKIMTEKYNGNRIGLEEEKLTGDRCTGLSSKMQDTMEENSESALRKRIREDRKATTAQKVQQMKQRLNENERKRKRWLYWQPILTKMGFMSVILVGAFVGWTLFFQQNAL
# TEST SUMMARY: Inhibition of TCPTP (pNPP hydrolysis, same manner as PTP1B assay)
# Type: biochemical
# EXPERIMENTAL CONTEXT: 200 μM inhibitor; pNPP substrate; read-out: TCPTP % Inhib. at (200 μM)
Give inhibition at 200 µM for every item shown.
Entry rule: numbers only, all in %.

Return reported inhibition at 200 µM; argument: COC(=O)CC[C@@H](C)[C@H]1CCC2C3C(CC[C@@]21C)[C@@]1(C)CC[C@H](NCCNC(C)C)C[C@@H]1C[C@H]3S(C)(=O)=O (some centres unmarked) [MSI-2531] 1

Repeat for the following compound: CC(C)CCC[C@@H](C)[C@H]1CCC2C3C[C@@H](O)[C@H]4C[C@H](NCCCN)CC[C@]4(C)C3CC[C@@]21C (some centres unmarked) [MSI-2504] 22

Repeat for the following compound: COC(=O)CC[C@@H](C)[C@H]1CCC2C3CC[C@@H]4C[C@@H](NCCNC(C)C)CC[C@]4(C)C3CC[C@@]21C (some centres unmarked) [MSI-2522] 50

Repeat for the following compound: CC(C)CCC[C@@H](C)[C@H]1CCC2C3C[C@@H](O)[C@H]4C[C@H](NCCCNCCCCN)CC[C@]4(C)C3CC[C@@]21C (some centres unmarked) [MSI-2506] 60

Repeat for the following compound: COC(=O)CC[C@@H](C)[C@H]1CCC2C3CC[C@@H]4CC(NCCN(C)C)CC[C@]4(C)C3CC[C@@]21C (some centres unmarked) [MSI-2535] 8

Repeat for the following compound: COC(=O)CC[C@@H](C)[C@H]1CCC2C3C(CC[C@@]21C)[C@@]1(C)CCC(NCCN(C)C)C[C@H]1C[C@H]3O (some centres unmarked) [MSI-2533] 5

Repeat for the following compound: COC(=O)CC[C@@H](C)[C@H]1CCC2C3C(CC[C@@]21C)[C@@]1(C)CC[C@@H](NCCN2CCCCC2)C[C@H]1C[C@H]3O (some centres unmarked) [MSI-2507] -11

Repeat for the following compound: COC(=O)CC[C@@H](C)[C@H]1CCC2C3CC[C@@H]4C[C@H](NCCN(C)C)CC[C@]4(C)C3CC[C@@]21C (some centres unmarked) [MSI-2534] 0

Repeat for the following compound: CC(C)CCC[C@@H](C)[C@H]1CCC2C3C[C@@H](O)[C@H]4C[C@@H](NCCCNCCCCNCCCN)CC[C@]4(C)C3CC[C@@]21C (some centres unmarked) [MSI-2516] 25

Repeat for the following compound: CC(C)NCCNC1CC[C@]2(C)C3CC[C@@]4(C)C(CC[C@@H]4[C@H](C)CCC(=O)O)C3C[C@@H](O)[C@H]2C1 (some centres unmarked) [MSI-2515] 19

Repeat for the following compound: COC(=O)CC[C@@H](C)[C@H]1CCC2C3C(CC[C@@]21C)[C@@]1(C)CC[C@H](NCCN2CCCCC2)C[C@@H]1C[C@H]3O (some centres unmarked) [MSI-2518] 12
